- Test system: L1210
- test description: In vitro inhibitory activity against murine leukemia L1210 cells
- Type: functional
- experimental parameters: Mus musculus, read-out: ED50 (the source's name)
Would you mind telling me the reported pEC50 of each entry?
Answers are plain numbers, as −log10 of the molar value.

[
  {
    "compound": "CNC(=O)NC1CCc2cc(OC)c(OC)c(OC)c2-c2ccc(SC)c(=O)cc21 (stereo not given)",
    "pEC50": 7.48
  },
  {
    "compound": "COc1cc2c(c(OC)c1OC)-c1ccc(SC)c(=O)cc1C(NC(=O)N(C)N=O)CC2 (stereo not given)",
    "pEC50": 7.74
  },
  {
    "compound": "COc1cc2c(c(OC)c1OC)-c1ccc(SC)c(=O)cc1C(NC(=O)NCCCl)CC2 (stereo not given)",
    "pEC50": 7.80
  },
  {
    "compound": "COc1cc2c(c(OC)c1OC)-c1ccc(SC)c(=O)cc1C(NC(=O)N(CCCl)N=O)CC2 (stereo not given)",
    "pEC50": 7.92
  }
]

Kindly review the next compound as well.
Query: Give reported pEC50 value for O=NN(CCCl)C(=O)NCCCl
Reply: 5.40
